# Target Entity: p110β/p85α (Homo sapiens)
# Sequence (P42338 whole entry): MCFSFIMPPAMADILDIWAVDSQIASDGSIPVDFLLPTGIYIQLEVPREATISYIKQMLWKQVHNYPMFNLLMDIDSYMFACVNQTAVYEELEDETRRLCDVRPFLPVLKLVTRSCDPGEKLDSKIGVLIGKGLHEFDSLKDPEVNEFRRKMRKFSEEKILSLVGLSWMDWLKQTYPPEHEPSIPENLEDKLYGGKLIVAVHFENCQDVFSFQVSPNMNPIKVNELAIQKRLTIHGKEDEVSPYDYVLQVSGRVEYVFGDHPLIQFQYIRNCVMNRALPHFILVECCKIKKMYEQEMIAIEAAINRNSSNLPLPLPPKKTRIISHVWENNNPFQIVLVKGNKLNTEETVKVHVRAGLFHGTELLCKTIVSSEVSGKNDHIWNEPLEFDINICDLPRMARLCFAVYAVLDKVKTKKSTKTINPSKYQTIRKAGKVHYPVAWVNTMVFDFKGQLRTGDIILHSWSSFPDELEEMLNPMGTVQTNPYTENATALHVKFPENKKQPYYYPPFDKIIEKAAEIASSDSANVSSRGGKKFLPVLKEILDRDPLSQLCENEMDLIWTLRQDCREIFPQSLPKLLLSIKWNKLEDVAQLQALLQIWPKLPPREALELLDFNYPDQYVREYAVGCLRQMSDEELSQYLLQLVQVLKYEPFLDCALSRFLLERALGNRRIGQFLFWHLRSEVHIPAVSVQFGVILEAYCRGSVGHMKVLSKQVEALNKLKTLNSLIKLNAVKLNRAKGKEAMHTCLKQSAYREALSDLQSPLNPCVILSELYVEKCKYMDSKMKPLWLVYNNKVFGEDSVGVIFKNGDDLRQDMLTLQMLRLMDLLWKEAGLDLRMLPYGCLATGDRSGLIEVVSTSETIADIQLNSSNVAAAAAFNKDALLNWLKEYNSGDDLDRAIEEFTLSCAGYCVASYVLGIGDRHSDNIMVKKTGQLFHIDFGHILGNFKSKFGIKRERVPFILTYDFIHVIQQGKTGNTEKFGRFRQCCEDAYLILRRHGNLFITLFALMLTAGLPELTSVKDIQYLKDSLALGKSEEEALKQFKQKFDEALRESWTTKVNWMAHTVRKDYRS
# Sequence (P27986 2-724 partner): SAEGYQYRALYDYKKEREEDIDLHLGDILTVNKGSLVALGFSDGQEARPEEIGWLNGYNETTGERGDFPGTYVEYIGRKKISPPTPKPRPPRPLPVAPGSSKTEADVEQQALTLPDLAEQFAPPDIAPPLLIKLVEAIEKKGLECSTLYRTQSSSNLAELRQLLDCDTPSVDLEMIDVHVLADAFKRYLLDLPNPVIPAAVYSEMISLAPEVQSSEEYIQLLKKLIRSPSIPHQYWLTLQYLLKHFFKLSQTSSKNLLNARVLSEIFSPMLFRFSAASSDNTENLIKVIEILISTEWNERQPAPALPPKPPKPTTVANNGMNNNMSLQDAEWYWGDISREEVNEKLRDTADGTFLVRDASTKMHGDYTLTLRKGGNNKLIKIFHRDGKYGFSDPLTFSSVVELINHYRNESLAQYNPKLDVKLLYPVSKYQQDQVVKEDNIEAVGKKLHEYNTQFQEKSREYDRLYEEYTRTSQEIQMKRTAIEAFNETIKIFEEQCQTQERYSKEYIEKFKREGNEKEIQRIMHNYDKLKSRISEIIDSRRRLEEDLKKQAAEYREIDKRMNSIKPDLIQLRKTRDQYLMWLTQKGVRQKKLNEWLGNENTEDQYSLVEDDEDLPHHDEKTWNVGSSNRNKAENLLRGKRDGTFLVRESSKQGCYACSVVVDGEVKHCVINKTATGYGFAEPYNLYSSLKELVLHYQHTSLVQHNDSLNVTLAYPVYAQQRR
# Assay Details: Transcreener KINASE Assay, kinase inhibition of p110β/p85α
# Format: biochemical
# Study Conditions: 1 uM test compound
Measure: PI3Kβ IH % @ 1 uM (%)

Look over these answered cases.
[[record]]
molecule = "COc1cccc(-n2c([C@@H]3CCCN3c3ncnc4[nH]cnc34)nn3ccc(Cl)c3c2=O)c1"
measure = "PI3Kβ IH % @ 1 uM"
reading = 60.9

[[record]]
molecule = "Nc1nc2c(c(N3CC[C@H]3c3nn4ccc(Cl)c4c(=O)n3-c3ccccc3)n1)C(=O)CCN2"
measure = "PI3Kβ IH % @ 1 uM"
reading = 31.9

[[record]]
molecule = "O=c1c2c(Cl)ccn2nc([C@@H]2CCN2c2ncnc3[nH]cc(C4=NCCO4)c23)n1-c1ccccc1"
measure = "PI3Kβ IH % @ 1 uM"
reading = 91.6

[[record]]
molecule = "O=c1c2c(Cl)ccn2nc([C@@H]2CC(F)(F)CN2c2ncnc3[nH]cnc23)n1-c1ccccc1"
measure = "PI3Kβ IH % @ 1 uM"
reading = 37.1

[[record]]
molecule = "C[S+]([O-])c1c[nH]c2ncnc(N3CC[C@H]3c3nn4ccc(Cl)c4c(=O)n3-c3ccccc3)c12 (stereo partly drawn)"
measure = "PI3Kβ IH % @ 1 uM"
reading = 32.3


(1) CC(Nc1ncnc2[nH]cc(F)c12)c1cc2ncc(Cl)n2c(=O)n1-c1ccccc1 (stereo not drawn) [Compound 285]
(2) CS(=O)(=O)CCn1c([C@@H]2CCCN2c2ncnc3[nH]cnc23)nn2ccc(Cl)c2c1=O
(3) CN(C)C(=O)c1cnc(N)nc1N1CC[C@H]1c1nn2ccc(Cl)c2c(=O)n1-c1ccccc1
(4) Nc1ncc([N+](=O)[O-])c(N2CC[C@H]2c2nn3ccc(Cl)c3c(=O)n2-c2ccccc2)n1
Rank items: key PI3Kβ IH % @ 1 uM, increasing. Rank them, then answer with their labels in that order.
3, 4, 2, 1

(P) COc1ncc(-c2c[nH]c3ncnc(NC(C)c4cc5ncc(Cl)n5c(=O)n4-c4ccccc4)c23)cn1 (stereo not drawn)
(Q) CC(=O)c1n[nH]c2ncnc(N3CCC[C@H]3c3nn4ccc(Cl)c4c(=O)n3-c3ccccc3)c12
# returns the entry with the larger PI3Kβ IH % @ 1 uM; inputs P and Q Write down the label attached to your selection.
P

(I) CC(Nc1ncnc2[nH]cnc12)c1cn2ccc(Cl)c2c(=O)n1-c1cc(F)cc(F)c1 (stereo not drawn)
(II) Nc1nc2c(c(N3CCC[C@H]3c3nn4ccc(Br)c4c(=O)n3-c3ccccc3)n1)CCC2
# returns the entry with the larger PI3Kβ IH % @ 1 uM; inputs I and II Write down the label attached to your selection.
I
(I: 58.9%, II: 38.4%)

====

# Target Entity: p110δ/p85α (Homo sapiens)
# Sequence (O00329 whole entry): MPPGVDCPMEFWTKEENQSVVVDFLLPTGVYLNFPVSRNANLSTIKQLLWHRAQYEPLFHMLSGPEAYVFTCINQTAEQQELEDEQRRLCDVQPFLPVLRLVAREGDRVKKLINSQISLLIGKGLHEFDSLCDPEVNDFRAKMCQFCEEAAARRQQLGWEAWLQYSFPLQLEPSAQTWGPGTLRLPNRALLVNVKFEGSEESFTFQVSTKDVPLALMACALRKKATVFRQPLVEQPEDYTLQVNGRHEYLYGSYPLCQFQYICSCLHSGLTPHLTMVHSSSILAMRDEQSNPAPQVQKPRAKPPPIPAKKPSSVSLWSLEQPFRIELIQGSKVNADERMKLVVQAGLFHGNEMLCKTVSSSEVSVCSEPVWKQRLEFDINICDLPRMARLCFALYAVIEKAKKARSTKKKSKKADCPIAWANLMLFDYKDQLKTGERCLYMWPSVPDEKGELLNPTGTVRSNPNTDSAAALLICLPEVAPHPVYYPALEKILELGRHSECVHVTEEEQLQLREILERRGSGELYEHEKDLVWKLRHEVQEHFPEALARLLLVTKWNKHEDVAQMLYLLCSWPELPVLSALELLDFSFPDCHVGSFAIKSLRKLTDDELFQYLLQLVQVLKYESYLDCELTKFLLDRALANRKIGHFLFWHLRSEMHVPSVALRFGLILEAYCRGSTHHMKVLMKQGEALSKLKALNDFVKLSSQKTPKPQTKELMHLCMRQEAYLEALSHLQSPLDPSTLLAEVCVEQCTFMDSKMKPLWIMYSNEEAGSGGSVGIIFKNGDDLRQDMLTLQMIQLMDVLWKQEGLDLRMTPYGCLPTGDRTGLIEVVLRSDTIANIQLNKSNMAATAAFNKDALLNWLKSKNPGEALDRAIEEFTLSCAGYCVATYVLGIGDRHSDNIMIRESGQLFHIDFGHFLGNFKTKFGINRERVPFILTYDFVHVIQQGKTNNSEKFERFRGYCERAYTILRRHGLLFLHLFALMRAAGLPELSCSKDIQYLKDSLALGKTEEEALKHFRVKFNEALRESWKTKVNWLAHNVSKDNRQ
# Sequence (P27986 whole entry partner): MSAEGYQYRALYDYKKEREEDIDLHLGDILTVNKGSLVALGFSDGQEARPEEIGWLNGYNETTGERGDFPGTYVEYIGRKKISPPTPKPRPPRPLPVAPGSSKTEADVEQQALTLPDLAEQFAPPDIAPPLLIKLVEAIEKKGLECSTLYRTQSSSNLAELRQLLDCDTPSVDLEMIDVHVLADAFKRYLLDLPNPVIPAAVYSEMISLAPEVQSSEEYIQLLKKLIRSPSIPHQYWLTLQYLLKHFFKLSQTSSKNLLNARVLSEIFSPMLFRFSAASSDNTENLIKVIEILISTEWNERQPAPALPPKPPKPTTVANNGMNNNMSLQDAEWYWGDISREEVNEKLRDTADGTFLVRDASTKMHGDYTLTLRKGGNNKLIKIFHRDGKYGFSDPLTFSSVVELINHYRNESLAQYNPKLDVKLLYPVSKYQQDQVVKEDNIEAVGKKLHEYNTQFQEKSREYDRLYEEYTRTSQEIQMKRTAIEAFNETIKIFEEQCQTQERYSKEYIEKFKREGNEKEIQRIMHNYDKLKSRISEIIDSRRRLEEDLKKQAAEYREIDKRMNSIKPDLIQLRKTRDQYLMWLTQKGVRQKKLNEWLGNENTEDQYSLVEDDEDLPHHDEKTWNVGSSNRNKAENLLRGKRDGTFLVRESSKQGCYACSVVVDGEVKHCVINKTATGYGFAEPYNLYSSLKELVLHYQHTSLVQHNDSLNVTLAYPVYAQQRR
# Assay Details: Transcreener KINASE Assay, kinase inhibition of p110δ/p85α
# Format: biochemical
# Study Conditions: 1 uM test compound
# Procedure: PI3K kinases including p110α/p85α, p110δ/p85α and p110γ are purchased from Invitrogen, and p110β/p85α is from Millipore. Primary screening data and IC50 values are measured using Transcreener™ KINASE Assay (Bellbrook, Catalog #3003-10K). […] It is a universal, homogenous, high throughput screening (HTS) technology using a far-red, competitive fluorescence polarization immunoassay based on the detection of ADP to monitor the activity of enzymes that catalyze group transfer reactions. […]
Measure: PI3Kδ IH % @ 1 uM (%)

[[record]]
molecule = "N#Cc1c[nH]c2ncnc(N3CCC[C@H]3c3nn4ccc(Cl)c4c(=O)n3Cc3ccccc3)c12"
measure = "PI3Kδ IH % @ 1 uM"
reading = 95.4

[[record]]
molecule = "N#Cc1c[nH]c2ncnc(N3CC(F)(F)C[C@H]3c3nn4ccc(Cl)c4c(=O)n3Cc3ccccn3)c12"
measure = "PI3Kδ IH % @ 1 uM"
reading = 80.2

[[record]]
molecule = "Nc1ncc(-c2n[nH]c3ncnc(N4CC[C@H]4c4nn5ccc(Cl)c5c(=O)n4-c4ccccc4)c23)cn1"
measure = "PI3Kδ IH % @ 1 uM"
reading = 96.6

[[record]]
molecule = "Nc1ncc([N+](=O)[O-])c(N2CCC[C@H]2c2nn3ccc(Cl)c3c(=O)n2-c2ccccc2)n1"
measure = "PI3Kδ IH % @ 1 uM"
reading = 98.1

[[record]]
molecule = "C[S@+]([O-])c1c[nH]c2ncnc(N3CCC[C@H]3c3nn4ccc(Cl)c4c(=O)n3-c3ccccn3)c12"
measure = "PI3Kδ IH % @ 1 uM"
reading = 96.2

[[record]]
molecule = "COc1cccc(-n2c([C@@H]3CCN3c3ncnc4[nH]cnc34)nn3ccc(Cl)c3c2=O)c1"
measure = "PI3Kδ IH % @ 1 uM"
reading = 71.9

[[record]]
molecule = "Cc1nc(N)nc(N2CC[C@H]2c2nn3ccc(F)c3c(=O)n2-c2ccccc2)c1C#N"
measure = "PI3Kδ IH % @ 1 uM"
reading = 99.5

[[record]]
molecule = "N#Cc1c[nH]c2ncnc(N3C[C@@H](C#N)C[C@H]3c3nn4ccc(Cl)c4c(=O)n3-c3ccccc3)c12"
measure = "PI3Kδ IH % @ 1 uM"
reading = 99.2

[[record]]
molecule = "N#Cc1c[nH]c2ncnc(N3C[C@H](O)C[C@H]3c3nn4ccc(Cl)c4c(=O)n3-c3ccccc3)c12"
measure = "PI3Kδ IH % @ 1 uM"
reading = 99.1

[[record]]
molecule = "CC(=O)c1c[nH]c2ncnc(N3CC[C@H]3c3nn4ccc(Cl)c4c(=O)n3-c3ccc(F)cc3)c12"
measure = "PI3Kδ IH % @ 1 uM"
reading = 77.0

[[record]]
molecule = "CC(Nc1ncnc2[nH]cnc12)c1cn2ccc(Cl)c2c(=O)n1-c1cccc(F)c1 (stereo not drawn)"
measure = "PI3Kδ IH % @ 1 uM"
reading = 99.1


====

# Target Entity: p110δ/p85α (Homo sapiens)
# Assay Details: Transcreener KINASE Assay, kinase inhibition of p110δ/p85α
# Format: biochemical
# Study Conditions: 1 uM test compound
Measure: PI3Kδ IH % @ 1 uM (%)

[[record]]
given_smiles = "CC(=O)c1cnc(N)nc1N1CC[C@H]1c1nn2ccc(Cl)c2c(=O)n1-c1ccccc1"
quantity_unit = "%"
reading = 99.4

[[record]]
given_smiles = "CC(=O)c1c[nH]c2ncnc(N3CC(=O)C[C@H]3c3nn4ccc(F)c4c(=O)n3-c3ccccc3)c12"
quantity_unit = "%"
reading = 77.5

[[record]]
given_smiles = "O=c1c2c(F)ccn2nc([C@@H]2CCCN2c2ncnc3[nH]cnc23)n1-c1ccccc1"
quantity_unit = "%"
reading = 92.0


====

# Target Entity: p110γ (Homo sapiens)
# Sequence (P48736 whole entry): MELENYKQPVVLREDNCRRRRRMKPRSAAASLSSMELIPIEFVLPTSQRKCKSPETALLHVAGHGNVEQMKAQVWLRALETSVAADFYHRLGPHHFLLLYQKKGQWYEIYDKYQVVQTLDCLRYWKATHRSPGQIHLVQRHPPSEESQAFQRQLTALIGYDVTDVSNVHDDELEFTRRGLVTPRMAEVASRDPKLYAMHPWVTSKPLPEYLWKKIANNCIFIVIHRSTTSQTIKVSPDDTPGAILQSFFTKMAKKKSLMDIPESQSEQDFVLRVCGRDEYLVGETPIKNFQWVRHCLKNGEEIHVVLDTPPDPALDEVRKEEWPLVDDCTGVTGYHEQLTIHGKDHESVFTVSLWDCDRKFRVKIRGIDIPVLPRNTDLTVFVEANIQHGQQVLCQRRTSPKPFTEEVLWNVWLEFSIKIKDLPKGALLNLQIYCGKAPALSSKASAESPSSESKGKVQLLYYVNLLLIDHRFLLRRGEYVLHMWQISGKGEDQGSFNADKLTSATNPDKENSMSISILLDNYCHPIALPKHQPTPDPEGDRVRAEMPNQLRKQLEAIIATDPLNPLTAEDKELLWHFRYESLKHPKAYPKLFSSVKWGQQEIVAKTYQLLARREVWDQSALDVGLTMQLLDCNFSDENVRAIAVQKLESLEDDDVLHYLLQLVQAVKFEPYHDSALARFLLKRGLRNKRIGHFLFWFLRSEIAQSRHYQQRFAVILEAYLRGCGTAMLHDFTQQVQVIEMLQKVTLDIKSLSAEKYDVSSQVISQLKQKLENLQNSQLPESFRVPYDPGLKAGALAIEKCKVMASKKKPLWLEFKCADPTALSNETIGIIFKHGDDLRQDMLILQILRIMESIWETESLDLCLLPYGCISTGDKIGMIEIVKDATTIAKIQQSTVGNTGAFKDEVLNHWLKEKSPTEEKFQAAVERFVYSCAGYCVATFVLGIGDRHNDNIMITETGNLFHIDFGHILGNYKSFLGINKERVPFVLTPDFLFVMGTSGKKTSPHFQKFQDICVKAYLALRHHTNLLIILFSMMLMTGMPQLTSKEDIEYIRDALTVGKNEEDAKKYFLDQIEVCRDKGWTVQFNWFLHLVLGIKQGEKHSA
# Assay Details: Transcreener KINASE Assay, kinase inhibition of p110γ
# Type: biochemical
# Study Conditions: 1 uM test compound
Measure: PI3Kγ IH % @ 1 uM (%)

[[record]]
given_smiles = "N#Cc1cnc(N)nc1N1CCC[C@H]1c1nn2ccc(Cl)c2c(=O)n1C1CCC1"
target_entity = "p110γ (Homo sapiens)"
measure = "PI3Kγ IH % @ 1 uM"
reading = 93.2

[[record]]
given_smiles = "C[S@+]([O-])c1c[nH]c2ncnc(N3C[C@@H](F)C[C@H]3c3nn4ccc(Cl)c4c(=O)n3-c3cccc(F)c3)c12"
target_entity = "p110γ (Homo sapiens)"
measure = "PI3Kγ IH % @ 1 uM"
reading = 89.1

[[record]]
given_smiles = "CN(C)C(=O)c1c[nH]c2ncnc(N3CCC[C@H]3c3nn4ccc(Cl)c4c(=O)n3-c3ccccc3)c12"
target_entity = "p110γ (Homo sapiens)"
measure = "PI3Kγ IH % @ 1 uM"
reading = 84.6


====

IC50, p110γ (Homo sapiens, UniProt P48736): measured values
Measure: IC50 (nM)

[[record]]
compound = "C[C@H]1CN(c2ncnc3[nH]cc(C#N)c23)C1c1nn2ccc(Cl)c2c(=O)n1-c1ccccc1 (some centres unmarked) [Compound 235]"
reading = 12


(I) C=Cc1ccn2nc([C@@H]3CCCN3c3ncnc4[nH]cc(C#N)c34)n(-c3ccccc3)c(=O)c12 [Compound 292]
(II) COCCO[C@H]1C[C@@H](c2nn3ccc(Cl)c3c(=O)n2-c2ccccc2)N(c2ncnc3[nH]cc(C#N)c23)C1 [Compound 264]
(III) N#Cc1cnc(N)nc1N1CC(=O)C[C@H]1c1nn2ccc(F)c2c(=O)n1-c1ccccc1 [Compound 401]
(IV) C[S+]([O-])c1c[nH]c2ncnc(N3CC[C@H]3c3nn4ccc(Cl)c4c(=O)n3-c3ccccc3)c12 (some centres unmarked) [Compound 196]
(V) CC(=O)c1c(C)nc(N)nc1N1CC[C@H]1c1nn2ccc(Cl)c2c(=O)n1-c1ccccc1 [Compound 398]
Parameters: sort_field (IC50), sort_dir (desc). Rank them, then answer with their labels in that order.
III, I, IV, V, II

(1) CC(C)Cn1c([C@@H]2CCN2c2ncnc3[nH]cc(C#N)c23)nn2ccc(Cl)c2c1=O [Compound 259]
(2) CC(=O)c1cnc(N)nc1N1CC[C@H]1c1nn2ccc(Cl)c2c(=O)n1-c1cccc(F)c1 [Compound 440]
(3) N#Cc1c[nH]c2ncnc(N3CC[C@H]3c3nn4ccc(Cl)c4c(=O)n3-c3ccc(F)cc3)c12 [Compound 37]
Parameters: sort_field (IC50), sort_dir (desc). Rank them, then answer with their labels in that order.
1, 3, 2

(A) C[S@@+]([O-])c1c[nH]c2ncnc(N3CC[C@H]3c3nn4ccc(Cl)c4c(=O)n3-c3ccccn3)c12 [Compound 391]
(B) COc1ccc(-c2n[nH]c3ncnc(N4CCC[C@H]4c4nn5ccc(Cl)c5c(=O)n4-c4ccccc4)c23)cn1 [Compound 109]
Please choose the item with the lower IC50 value from this pair: A and B Write down the label attached to your selection.
A
